systemTested: Delta-type opioid receptor (Mus musculus, UniProt P32300)
Sequence (P32300 whole entry): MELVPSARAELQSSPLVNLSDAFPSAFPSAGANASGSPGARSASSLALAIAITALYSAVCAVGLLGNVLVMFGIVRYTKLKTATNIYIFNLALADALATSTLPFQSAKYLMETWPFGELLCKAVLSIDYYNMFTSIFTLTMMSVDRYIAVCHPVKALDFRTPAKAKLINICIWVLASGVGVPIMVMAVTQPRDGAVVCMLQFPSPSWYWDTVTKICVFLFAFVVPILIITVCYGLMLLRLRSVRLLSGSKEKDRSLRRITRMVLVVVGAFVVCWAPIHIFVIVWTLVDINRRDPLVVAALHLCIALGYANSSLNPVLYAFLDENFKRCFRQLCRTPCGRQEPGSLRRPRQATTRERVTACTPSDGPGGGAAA
assayInfo: Inhibitory activity of the electrically induced smooth muscle contraction of mouse vas deferens
pIC50: −log10 of the molar value. Bridge positions count the residues as written; N and C are the ends. Square brackets hold non-standard residues; d marks the D form. Peptide text beside a SMILES is read from it. dPen = CC(C)(S)[C@@H](N)C(=O)O
measuredAttribute: pIC50

• CC1(C)SSC(C)(C)[C@@H](NC(=O)[C@@H](N)Cc2ccc(O)cc2)C(=O)N[C@H](CO)C(=O)N[C@@H](Cc2ccccc2)C(=O)N[C@H]1C(=O)O (H-Y[dPen][dS]F[dPen]-OH; disulfide 2-5) = 5.89
